Biological target: human angiotensin II type 1 receptor (hAT1R) (Homo sapiens, UniProt P30556)
Construct: we applied the DNA display system to in vitro selection of peptide ligands for a full-length GPCR expressed on whole cells; polyhistidine (C)
Sequence (P30556 whole entry, the tested form may be a part): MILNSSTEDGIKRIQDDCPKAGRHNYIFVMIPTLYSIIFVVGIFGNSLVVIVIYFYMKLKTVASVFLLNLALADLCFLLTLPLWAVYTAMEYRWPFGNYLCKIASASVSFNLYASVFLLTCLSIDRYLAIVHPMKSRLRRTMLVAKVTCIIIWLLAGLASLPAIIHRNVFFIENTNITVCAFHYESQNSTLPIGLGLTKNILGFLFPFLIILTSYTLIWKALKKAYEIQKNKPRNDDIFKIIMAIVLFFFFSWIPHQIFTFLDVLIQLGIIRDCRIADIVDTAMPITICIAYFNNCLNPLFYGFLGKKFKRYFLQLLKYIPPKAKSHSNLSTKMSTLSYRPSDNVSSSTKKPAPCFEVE
Test: Competitive binding assay at various concentrations of synthetic peptides (IC50)
Details: streptavidin-fused Ang II on hAT1R/CHO-K1 cells competed by 0–200 nM synthetic peptide; 10 min room temperature; quantitative Western blot (Fig. S1)
Protocol: Streptavidin-fused peptides for selected clones were prepared separately by using the PURE system classic II kit with 20 nM DNA for 1 h at 37°C. […] The cell lysates were analyzed by 15% SDS-PAGE and Western blot analysis using anti-T7·tag antibody (Novagen) followed by HRP-conjugated secondary antibody (Chemicon). The streptavidin-fused peptides with T7·tag were quantitatively detected by an ECL chemiluminescence kit and Hyperfilm ECL (GE Healthcare). […]
Residues, ends and D or L forms follow the SMILES beside them.
Measured IC50 values are reported for all entries that follow.
valueKind: IC50 (nM)

{"columns": ["molecule", "quantitativeReadout"],
 "data": [
  ["CC[C@H](C)[C@H](NC(=O)[C@@H]1CCCN1C(=O)[C@H](Cc1c[nH]cn1)NC(=O)[C@@H](NC(=O)[C@H](Cc1ccc(O)cc1)NC(=O)[C@H](CC(C)C)NC(=O)[C@H](CCCCN)NC(=O)[C@@H](N)CCCNC(=N)N)[C@@H](C)CC)C(=O)O [LII3-5] (H-RKLYIHPI-OH)", 7.6],
  ["CC[C@H](C)[C@H](NC(=O)[C@H](Cc1ccc(O)cc1)NC(=O)[C@H](Cc1ccccc1)NC(=O)[C@H](CCCNC(=N)N)NC(=O)[C@@H](N)CCC(N)=O)C(=O)N[C@@H](Cc1c[nH]cn1)C(=O)N1CCC[C@H]1C(=O)N[C@@H](CC(C)C)C(=O)O [LII3-4] (H-QRFYIHPL-OH)", 48],
  ["CC[C@H](C)[C@H](NC(=O)[C@H](CCCNC(=N)N)NC(=O)[C@@H](N)CC(N)=O)C(=O)N[C@@H](Cc1ccc(O)cc1)C(=O)N[C@H](C(=O)N[C@@H](Cc1c[nH]cn1)C(=O)N1CCC[C@H]1C(=O)N[C@@H](Cc1ccccc1)C(=O)O)[C@@H](C)CC [LI5-1] (H-NRIYIHPF-OH)", 16]
]}

---

molecular target: human angiotensin II type 1 receptor (hAT1R) (Homo sapiens, UniProt P30556); construct: we applied the DNA display system to in vitro selection of peptide ligands for a full-length GPCR expressed on whole cells; polyhistidine (C); assay: Competitive binding assay at various concentrations of synthetic peptides (IC50); settings: streptavidin-fused Ang II on hAT1R/CHO-K1 cells competed by 0–200 nM synthetic peptide; 10 min room temperature; quantitative Western blot (Fig. S1)
Residues, ends and D or L forms follow the SMILES beside them.
valueKind: IC50 (nM)

{"columns": ["compound", "experimentalSystem", "valueKind", "quantitativeReadout"],
 "data": [
  ["CC[C@H](C)[C@H](NC(=O)[C@@H]1CCCN1C(=O)[C@H](Cc1c[nH]cn1)NC(=O)[C@@H](NC(=O)[C@H](Cc1ccc(O)cc1)NC(=O)[C@H](CC(C)C)NC(=O)[C@H](CCCNC(=N)N)NC(=O)CN)[C@@H](C)CC)C(=O)O [LII3-2] (H-GRLYIHPI-OH)", "human angiotensin II type 1 receptor (hAT1R) (Homo sapiens, UniProt P30556)", "IC50", 8.6],
  ["CC(C)C[C@H](NC(=O)[C@H](CCCNC(=N)N)NC(=O)[C@@H](N)Cc1c[nH]c2ccccc12)C(=O)N[C@@H](Cc1ccc(O)cc1)C(=O)N[C@@H](CC(C)C)C(=O)N[C@@H](Cc1c[nH]cn1)C(=O)N1CCC[C@H]1C(=O)N[C@@H](Cc1ccccc1)C(=O)O [LI5-2] (H-WRLYLHPF-OH)", "human angiotensin II type 1 receptor (hAT1R) (Homo sapiens, UniProt P30556)", "IC50", 75]
]}
